Item-by-item account of fold difference in affinity vs original
- assay-target: binding partner (antigen) of C5A (XPA23)
- measurement-notes: Biacore, K-off, fold vs original
Numeric only. Scale: fold

# binder, u, fold difference in affinity vs original
records = [
    ("C5A (XPA23) VH Y101P (antibody, V domains shown) VH: EVQLLESGGGLVQPGGSLRLSCAASGFTFSKYFMFWVRQAPGKGLEWVSVISPSGGMTRYADSVKGRFTISRDNSKNTLYLQMNSLRAEDTAVYYCARVGPGGNSDYWGQGTLVTVSS VL: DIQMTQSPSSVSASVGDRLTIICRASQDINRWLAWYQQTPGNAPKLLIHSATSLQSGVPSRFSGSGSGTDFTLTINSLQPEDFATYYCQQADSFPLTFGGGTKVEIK", "fold", 0.04),
]

Now for another entry.
// query Find the recorded fold difference in affinity vs original belonging to C5A (XPA23) VH N104L (antibody, V domains shown) VH: EVQLLESGGGLVQPGGSLRLSCAASGFTFSKYFMFWVRQAPGKGLEWVSVISPSGGMTRYADSVKGRFTISRDNSKNTLYLQMNSLRAEDTAVYYCARVGYGGLSDYWGQGTLVTVSS VL: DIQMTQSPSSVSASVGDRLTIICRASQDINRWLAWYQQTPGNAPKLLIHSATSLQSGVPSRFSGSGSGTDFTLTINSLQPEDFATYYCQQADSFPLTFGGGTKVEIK and report it.
// result 1.19
